From: PubChem BioAssay (NCI)

Quick reference: TGI of the listed items.
system: OVCAR-3 ovarian; experiment: NCI tumour cell line growth inhibition, 48 h

Recorded TGI for Cc1nc(N)sc1C(=O)/C=C/c1ccc(/C=C/C(=O)c2sc(NC(=O)CCCCCCCCC(=O)Nc3nc(C)c(C(=O)/C=C/c4ccc(/C=C/C(=O)c5sc(N)nc5C)cc4)s3)nc2C)cc1 on OVCAR-3 ovarian was > 100 µM

Recorded TGI for CN1CC(c2ccccc2)N(CCCCN2CC(c3ccccc3)N(C)CC2c2ccccc2)CC1c1ccccc1 (stereo not drawn) on OVCAR-3 ovarian was > 100 µM

Next:
Recorded TGI for O=C(C(O)c1cn(Cc2ccccc2)c2ccccc12)N1CCCCC1 (stereo not drawn) on OVCAR-3 ovarian was > 100 µM
